System Tested: UniProtKB P09960
Sequence (P09960 whole entry): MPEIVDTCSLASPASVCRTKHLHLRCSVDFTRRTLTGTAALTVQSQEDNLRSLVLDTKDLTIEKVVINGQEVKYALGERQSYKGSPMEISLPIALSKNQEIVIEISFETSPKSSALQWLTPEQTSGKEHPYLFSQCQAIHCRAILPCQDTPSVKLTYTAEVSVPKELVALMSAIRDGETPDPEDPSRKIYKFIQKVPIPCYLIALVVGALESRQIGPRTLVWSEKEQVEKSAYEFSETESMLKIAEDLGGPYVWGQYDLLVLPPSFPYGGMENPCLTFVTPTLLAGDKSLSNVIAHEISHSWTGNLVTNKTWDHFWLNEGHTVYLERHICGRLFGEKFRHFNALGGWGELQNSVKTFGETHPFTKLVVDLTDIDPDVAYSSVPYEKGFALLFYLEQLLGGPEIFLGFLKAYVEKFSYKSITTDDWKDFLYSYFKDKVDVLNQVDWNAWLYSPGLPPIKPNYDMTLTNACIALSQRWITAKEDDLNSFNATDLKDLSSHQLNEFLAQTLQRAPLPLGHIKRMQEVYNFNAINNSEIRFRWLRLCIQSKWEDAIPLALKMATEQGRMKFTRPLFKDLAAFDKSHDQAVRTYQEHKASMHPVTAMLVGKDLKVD
Assay Summary: LTA4H Enzyme assay (cleavage of Arg-AMC, fluorescence)
Assay type: biochemical
Condition Label: LTA4H Enzyme 1 nM, Arg-AMC substrate 50 μM, room temperature 1 h, fluorescence; read-out: IC50 values of LTA4H Enzyme assay
pIC50: −log10 of the molar value. Structures can show the parent of a compound that is named as a salt.
Examples of compounds with documented pIC50 follow.
Endpoint Label: pIC50

>  <Compound>
O=C(NC1CCN(Cc2ccc([C@H]3COc4cccnc4O3)cc2)CC1)C1(O)CC1 [Example 223]

>  <Endpoint Label>
pIC50

>  <Measured Number>
9.80

$$$$
>  <Compound>
O=C(CNCc1ccc(C2COc3ccccc3O2)cc1)N1CCCC1 (racemic) [Example 12]

>  <Endpoint Label>
pIC50

>  <Measured Number>
7.99

$$$$
>  <Compound>
c1cnc2c(c1)OC[C@H](c1ccc(CNC3CCCC3)cc1)O2 [Example 135]

>  <Endpoint Label>
pIC50

>  <Measured Number>
9.33

$$$$
>  <Compound>
CC1(C(=O)O)CCN(Cc2ccc([C@H]3COc4cccnc4O3)cc2)CC1 [Example 228, formate salt]

>  <Endpoint Label>
pIC50

>  <Measured Number>
9.21

$$$$
>  <Compound>
CNC(=O)c1cn2c(n1)CN(Cc1ccc([C@H]3COc4cccnc4O3)cc1)CC2 [Example 244]

>  <Endpoint Label>
pIC50

>  <Measured Number>
9.59

$$$$
>  <Compound>
CN(CC(=O)O)Cc1ccc([C@H]2COc3ccccc3O2)cc1 [Example 60]

>  <Endpoint Label>
pIC50

>  <Measured Number>
7.51

$$$$
>  <Compound>
c1cncc(OC2CCN(Cc3ccc([C@H]4COc5cccnc5O4)cc3)CC2)c1 [Example 293]

>  <Endpoint Label>
pIC50

>  <Measured Number>
9.62

$$$$
>  <Compound>
NC(=O)c1nnc2n1CCN(Cc1ccc([C@H]3COc4cccnc4O3)cc1)CC2 [Example 245]

>  <Endpoint Label>
pIC50

>  <Measured Number>
9.49

$$$$
>  <Compound>
CN1CCC2(CCN(Cc3ccc([C@H]4COc5cccnc5O4)cc3)CC2)C1=O [Example 129]

>  <Endpoint Label>
pIC50

>  <Measured Number>
9.64

$$$$
>  <Compound>
CN(CCc1ccccn1)Cc1ccc(C2COc3ccccc3O2)cc1 (racemic) [Example 42]

>  <Endpoint Label>
pIC50

>  <Measured Number>
9.16

$$$$
>  <Compound>
CCOC(=O)c1nnc2n1CCN(Cc1ccc([C@H]3COc4cccnc4O3)cc1)C2 [Example 240]

>  <Endpoint Label>
pIC50

>  <Measured Number>
9.25

$$$$
>  <Compound>
CC(=O)N1CC[C@H](NCc2ccc([C@H]3COc4ccccc4O3)cc2)C1 [Example 65]

>  <Endpoint Label>
pIC50

>  <Measured Number>
8.94

$$$$
>  <Compound>
CC(=O)N1CCC(NCc2ccc([C@H]3COc4cccnc4O3)cc2)CC1 [Example 153]

>  <Endpoint Label>
pIC50

>  <Measured Number>
9.09

$$$$
>  <Compound>
NC(=O)C1CCCN(Cc2ccc(C3COc4ccccc4O3)cc2)C1 (racemic) [Example 114]

>  <Endpoint Label>
pIC50

>  <Measured Number>
9.11

$$$$
>  <Compound>
OC1CCN(Cc2ccc([C@H]3COc4ccccc4O3)cc2)CC1 (single isomer, unassigned) [Example 192]

>  <Endpoint Label>
pIC50

>  <Measured Number>
9.37

$$$$
>  <Compound>
CS(=O)(=O)CC(=O)N1C[C@@H]2C[C@H]1CN2Cc1ccc([C@H]2COc3cccnc3O2)cc1 [Example 256]

>  <Endpoint Label>
pIC50

>  <Measured Number>
9.31

$$$$
>  <Compound>
O[C@H]1CCN(Cc2ccc(C3COc4ccccc4O3)cc2)C1 (mixture of isomers) [Example 9]

>  <Endpoint Label>
pIC50

>  <Measured Number>
8.83

$$$$

Data provenance is patent US8946203B2.
